Assay: NCI Yeast Anticancer Drug Screen. Data for the mec2-1 strain (AID 157)
Details: S. cerevisiae mec2-1 strain, at 50.0 µM
Protocol: Growth inhibition of yeast strains with defined genetic alterations is measured as a screen for potential anti-cancer activity. Selected strains with alterations in DNA damage repair or cell cycle control were exposed to compounds and growth inhibition was measured relative to vehicle treated controls. The strain used in this assay is mec2-1
This is part of a sample that, as a whole, favours compounds with a hit. Of some 79,000 tested, about 15% had one in any assay. Active and inactive are the calls of the source. Cut-off read from the data, not from the text of the source: active = growth inhibition above about 70%; inactive = the rest. *1 amine or outer side, *2 acyl side, *3 side chain or, on linkers, in order; H or OH if unused. Where a SMILES comes first, the peptide text is derived from it. [ ]: non-standard residue; d: D form. The star is where a group is joined. X17 = CC(=O)N(C)SCC(N[*:1])C(=O)[*:2]; Fmoc = O=C(OCC1c2ccccc2-c2ccccc21)*; For = O=C*
Possible outcomes: True (active), False (inactive)

| molecule | discrete.label |
| --- | --- |
| CC(C)(C)OC(=O)N1CCCC1C(=O)NC(c1ccccc1)c1ccccc1 (configuration not stated) | False |
| O=[N+]([O-])c1ccc(NC(CO)C(O)C(O)C(O)CO)c([N+](=O)[O-])c1 (configuration not stated) | False |
| O=C1C(CCCS)C(c2ccccc2)=NN1c1ccccc1 (configuration not stated) | False |
| CN1N=C2c3ccccc3OC(c3ccccc3)[C@H]2C1c1ccccc1 (some centres not stated) | False |
| CNc1ccccc1C(=O)N/N=C/c1cccc([N+](=O)[O-])c1 | False |
| CCCCCCCC(=O)C(C)C | False |
| CN(C)c1ccc(/C=N\NC(=S)NCCCN2CCN(CCCNC(=S)N/N=C/c3ccc(N(C)C)cc3)CC2)cc1 | False |
| Brc1ccc(-c2oc3c4ccccc4c4ccccc4c3c2-c2ccc(Br)cc2)cc1 | False |
| CSC12CC3C(=O)C=C[C@@H](O)[C@@H]3N1C(=O)C1(SC)CC3C(=O)C=C[C@@H](O)[C@@H]3N1C2=O (some centres not stated) | True |
| CC(=O)Oc1ccccc1C(=O)OC(=O)c1ccccc1OC(C)=O | False |
| CC(=O)N(C(=O)CC(=O)N/N=C\c1ccc(Br)c(N(CCC#N)CCC#N)c1)c1ccc(Cl)cc1 | False |
| COC1=CC(=O)C(C(C)=O)=C(O)C1=O | False |
| CC(C)(C)OC(=O)NC(C)(C)C(=O)NCCC(=O)O | False |
| O=C1CSC(c2ccccn2)N1CCN1C(=O)CSC1c1ccccn1 (configuration not stated) | False |
| N#CC1C(C#N)C2CCC1C1N=NN(c3ccccc3)C21 (configuration not stated) | False |
| CCN(CC)C(=O)Cc1ccc2c3c(cccc13)CC2 | False |
| CC1(c2ccccc2)OCC(c2ccccc2)O1 (configuration not stated) | False |
| CCN(CC)Cc1cc(OC)c(OC)c(OC)c1 | False |
| CSc1c(C#N)c(N)n2c1C(=O)N(c1ccccc1)C2=S | False |
| CCOC(=O)C1=C(C)N(NC(=O)Nc2ccccc2)C2(N)N(NC(=O)Nc3ccccc3)C(C)=C(C(=O)OCC)C12C(=O)OCC (configuration not stated) | False |
| CC(C)(c1ccc(C(=O)O)cc1)c1ccc(C(=O)O)cc1 | False |
| COc1ccc(CC2c3cc(OC)c(OC)cc3C=CN2C)cc1OC (configuration not stated) | False |
| CCCC(=O)Nc1ccc(OC)cc1 | False |
| Cc1cc(NC(=O)NC(=O)c2ccccc2NC(=O)CN)ccc1Oc1ncc(Br)cn1 | False |
| CNC(=O)OCc1c(COC(=O)NC)c(C)n(-c2ccccc2)c1C | False |
| O=C(CC(c1ccccc1)N1CCCCC1)OC(c1ccccc1)c1ccc(Br)cc1 (configuration not stated) | False |
| O=C(Nc1ccc(F)cc1)C(=O)C(C(=O)c1ccccc1F)C1OC(=O)c2ccccc21 (configuration not stated) | False |
| CCN1CCCC(Cl)C1 (configuration not stated) | False |
| CCOC(=O)C(NC(=O)CC)(Nc1ccc(S(=O)(=O)Nc2onc(C)c2C)cc1)C(F)(F)F (configuration not stated) | False |
| C/C(=N\N(C)/C=N/S(C)(=O)=O)c1ccccc1 | False |
| Clc1ccc(-c2nc3ccccc3cc2N2CCCCC2)cc1 | False |
| COc1ccc(CC(=O)O)cc1OC | False |
| O=C(Cc1ccccc1)NC(CSSCC(NC(=O)Cc1ccccc1)C(=O)O)C(=O)O (configuration not stated) | False |
| CCC(=O)OCCCc1ccccc1 | False |
| COC(=O)c1ccccc1-c1ccccc1C(=O)OC | False |
| Oc1c(O)c(Cc2ccccc2)c(Cc2ccccc2)c(Cc2ccccc2)c1Cc1ccccc1 | False |
| CCC1=Nc2ccccc2C(c2ccccc2)NC1=O (configuration not stated) | False |
| Cc1nc2c(o1)C(=Nc1ccccc1)c1ccccc1C2=Nc1ccccc1 | False |
| COC1(OC)C2(Cl)C(Cl)=C(Cl)C1(Cl)C1CCCCC12 (configuration not stated) | False |
| CN(C)N=Nc1ccc(Cl)cc1C(=O)O | False |
| CC(=O)N(C)SCC(NC(=O)C(Cc1ccccc1)NC(=O)OCC1c2ccccc2-c2ccccc21)C(=O)NC(Cc1ccccc1)C(=O)NC(Cc1cn(C=O)c2ccccc12)C(=O)NC(CCCCNC(=O)OCC1c2ccccc2-c2ccccc21)C(=O)NC(C(=O)NC(CSN(C)C(C)=O)C(=O)NC(C(N)=O)C(C)O)C(C)O (configuration not stated) (Fmoc-F[X17]FW(For)K(Fmoc)T[X17]T-NH2; configuration not given here) | True |
| CC(C)(O)/C1=C/C=C/CCCCCCCCCC1 | False |
